target: c-Met kinase (Homo sapiens); experiment: Cell-free Z'-LYTE kinase assay, c-Met phosphorylation inhibition; type: biochemical; settings: single 5 µM dose
Sequence (P08581 1078-1345 limits assumed): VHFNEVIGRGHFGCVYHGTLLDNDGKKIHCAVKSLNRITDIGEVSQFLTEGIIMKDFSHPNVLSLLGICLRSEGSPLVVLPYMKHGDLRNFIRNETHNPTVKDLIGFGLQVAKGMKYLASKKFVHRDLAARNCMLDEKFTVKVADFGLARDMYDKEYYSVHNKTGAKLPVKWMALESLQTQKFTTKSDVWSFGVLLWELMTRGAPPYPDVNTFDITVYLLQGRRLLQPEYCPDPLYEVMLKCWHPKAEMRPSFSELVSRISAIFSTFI
MEASURED PARAMETER: % c-Met Inhibition using Cell-Free assay (5 µM dose) (%)

COMPOUND	UNIT OF MEASUREMENT	MEASURED NUMBER
COc1ccc(C=CC(=O)OC2C(C)OC(OC3C4C=COC(OC5OC(CO)C(O)C(O)C5O)C4C4(CO)OC34)C(O)C2OC(=O)C=Cc2ccc(OC)cc2)cc1 (stereo not shown)	%	0
C[C@@H]1O[C@@H](O[C@H]2[C@@H]3C=CO[C@@H](O[C@@H]4O[C@H](CO)[C@@H](O)[C@H](O)[C@H]4O)[C@@H]3[C@@]3(CO)O[C@@H]23)[C@H](O)[C@H](OC(=O)/C=C/c2ccc(O)cc2)[C@H]1OC(=O)/C=C/c1ccc(O)cc1 (relative stereo)	%	0
C[C@@H]1O[C@@H](OC(=O)/C=C/c2ccc(O)cc2)[C@H](O)[C@H](OC(=O)/C=C/c2ccc(O)c(O)c2)[C@H]1O (relative stereo)	%	38.8
COc1ccc(/C=C/C(=O)O[C@@H]2[C@@H](O)[C@@H](O)[C@H](O[C@H]3[C@@H]4C=CO[C@@H](O[C@@H]5O[C@H](CO)[C@@H](O)[C@H](O)[C@H]5O)[C@@H]4[C@@]4(CO)O[C@@H]34)O[C@H]2C)cc1	%	56.7
